Molecular target: POU2 (OCT2 POU domain) (human, UniProt P09086 175-386)
Sequence: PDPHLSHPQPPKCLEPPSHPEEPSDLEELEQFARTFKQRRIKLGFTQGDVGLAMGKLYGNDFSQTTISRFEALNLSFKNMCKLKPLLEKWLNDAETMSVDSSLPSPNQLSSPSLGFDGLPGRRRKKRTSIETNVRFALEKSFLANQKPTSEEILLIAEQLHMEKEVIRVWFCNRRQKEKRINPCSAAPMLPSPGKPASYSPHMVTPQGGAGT
Assay: EMSA-SELEX-seq; no BOB1; 20 mM Tris-HCl pH 7.6, 140 mM NaCl, 10% glycerol, 0.5 mM EDTA, 0.05% Triton X-100, 0.1 mg/mL BSA, 0.1 mg/mL poly(dI-dC), 5 mM DTT, room temperature, 20 min; high values mean tight binding
Conditions: protein: recombinant; dsDNA, one strand shown
Value Kind: binding signal

Guide cases for binding signal, answers given:
Chain Sequence	Readout Value
ACCACAAC	0.0132 % of ANNNNAAN 8-mers
AAGATAAG	0.0593 % of ANNNNAAN 8-mers

Reported binding signal for ACAGGAAC : what is it? 0.0265 % of ANNNNAAN 8-mers

Need binding signal, item ATGCAAAC 0.445 % of ANNNNAAN 8-mers

Name the reported binding signal value associated with the sequence AAGAGAAA 0.0621 % of ANNNNAAN 8-mers

Please look up its binding signal: ACCGGAAT 0.0489 % of ANNNNAAN 8-mers

Would you mind telling me what binding signal value was observed for ATTTCAAT ? 0.268 % of ANNNNAAN 8-mers

May I ask what binding signal has been recorded for AGGGCAAC ? 0.0219 % of ANNNNAAN 8-mers

I would be grateful if you could share the reported binding signal for ACACTAAC . 0.0132 % of ANNNNAAN 8-mers

Give its binding signal value. Item: AAGTTAAG 0.0742 % of ANNNNAAN 8-mers

Can you share its binding signal? I mean this sequence: ATGCAAAG 0.831 % of ANNNNAAN 8-mers

Fill blank: measured binding signal of the sequence ACTCTAAC is ____. 0.015 % of ANNNNAAN 8-mers

Please give the measured binding signal for this sequence: ACGTCAAT 0.0426 % of ANNNNAAN 8-mers

I am curious: what binding signal value has been reported for ATAGGAAG ? 0.0696 % of ANNNNAAN 8-mers
